Molecular target: α1A receptor (Rattus norvegicus, UniProt P43140)
Construct: the α1A receptors are present on a membrane of a rat salivary gland; from tissue; host or cells: rat salivary gland membrane homogenate
Sequence (P43140 1-466): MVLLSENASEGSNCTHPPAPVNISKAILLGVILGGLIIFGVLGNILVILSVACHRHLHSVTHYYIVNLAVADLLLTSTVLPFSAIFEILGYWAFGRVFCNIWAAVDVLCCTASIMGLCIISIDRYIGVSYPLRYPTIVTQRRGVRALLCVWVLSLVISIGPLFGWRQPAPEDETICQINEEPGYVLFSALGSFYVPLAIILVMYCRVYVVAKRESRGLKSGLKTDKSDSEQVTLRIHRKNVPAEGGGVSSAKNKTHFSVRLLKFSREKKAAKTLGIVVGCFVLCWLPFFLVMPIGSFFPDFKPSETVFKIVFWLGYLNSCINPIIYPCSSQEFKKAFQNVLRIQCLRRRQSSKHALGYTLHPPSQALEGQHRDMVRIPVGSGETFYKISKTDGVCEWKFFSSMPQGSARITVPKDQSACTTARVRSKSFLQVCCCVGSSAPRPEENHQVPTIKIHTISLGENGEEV
Assay: α1 adrenergic receptor binding test ([3H]prazosin displacement, rat salivary gland membrane homogenate)
Details: [3H]prazosin 0.06 nM as ligand; membrane homogenate of rat salivary gland; 22° C., 60 minutes; specimens 0.02-20 μM
pIC50: −log10 of the molar value.
observable: pIC50

compound	observable	reported measurement
COC(=O)[C@@H]1c2cc(/C=C/C(=O)NCCCCNC(=N)N)ccc2O[C@H]1c1ccc(O)cc1 [compound 19a]	pIC50	5.69
COC(=O)[C@H]1c2cc(/C=C/C(=O)NCCCCNC(=N)N)ccc2O[C@@H]1c1ccc(O)cc1 [compound 19b]	pIC50	6.21
COC(=O)C1c2cc(C=CC(=O)NCCCCNC(=N)N)ccc2OC1c1ccc(O)cc1 (racemic) [racemic mixture of the compounds 19a and 19b]	pIC50	5.62
N=C(N)NCCCCNC(=O)/C=C/c1ccc2c(c1)C(C(=O)O)C(c1ccc(O)cc1)O2 (racemic) [racemic mixture of the compounds 20a and 20b]	pIC50	5.70
